# Target under test: BTK enzyme (Homo sapiens, UniProt Q06187)
pIC50: −log10 of the molar value.
Measurement label: pIC50

Cc1cc(-c2ccnc(N)n2)ccc1CNC(=O)[C@@H]1CC[C@@H]2CNCCN2C1 [Example I-79]; 5.00 to 6.00
Cc1cc(-c2ccnc(Nc3cnn(C)c3)n2)ccc1CNC(=O)N1CC[C@H](C(C)(C)C)C1 [Example I-253]; > 8.00
CN1CCC(n2cc(Nc3nccc(-c4ccc(CNC(=O)N5CCC(C(C)(C)C)C5)c(C(F)(F)F)c4)n3)cn2)CC1 (stereo not shown) [Example I-298]; > 8.00

Now, please, on to the next compound.
QUERY: Please tell me the measured pIC50 for Cc1cc(-c2ccnc(Nc3cnn(C4CCN(C)CC4)c3)n2)ccc1CNC(=O)N1CC(OC(C)C)C1 [Example I-219] ; system: BTK enzyme (Homo sapiens, UniProt Q06187).
RESULT: > 8.00

---

# Target under test: BTK (phospho-BTK) in human whole blood (Homo sapiens, UniProt Q06187)
# Sequence (Q06187 whole entry): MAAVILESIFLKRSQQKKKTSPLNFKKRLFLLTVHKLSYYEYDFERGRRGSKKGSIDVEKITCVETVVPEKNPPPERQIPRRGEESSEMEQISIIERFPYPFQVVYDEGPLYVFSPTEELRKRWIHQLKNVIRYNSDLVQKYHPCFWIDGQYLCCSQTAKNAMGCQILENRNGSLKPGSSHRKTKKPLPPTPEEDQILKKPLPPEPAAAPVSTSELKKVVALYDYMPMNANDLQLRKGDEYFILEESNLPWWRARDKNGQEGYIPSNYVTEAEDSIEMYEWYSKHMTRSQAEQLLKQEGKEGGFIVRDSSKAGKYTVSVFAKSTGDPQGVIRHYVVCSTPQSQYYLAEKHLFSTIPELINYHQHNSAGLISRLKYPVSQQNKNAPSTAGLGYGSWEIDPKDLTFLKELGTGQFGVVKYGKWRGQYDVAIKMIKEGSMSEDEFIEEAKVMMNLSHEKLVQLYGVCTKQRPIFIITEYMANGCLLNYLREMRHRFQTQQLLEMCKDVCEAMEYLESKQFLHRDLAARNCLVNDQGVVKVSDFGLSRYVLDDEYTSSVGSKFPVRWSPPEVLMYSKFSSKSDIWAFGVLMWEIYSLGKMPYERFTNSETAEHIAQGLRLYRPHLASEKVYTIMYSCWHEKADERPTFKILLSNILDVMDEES
# Protocol text: In vitro PD assay in human whole blood (pBTK assay)
Measurement label: IC50

The following compounds have reported results that may help.
CCn1cc(Nc2nccc(-c3ccc4c(c3)CCCCC4NC(=O)N3CC(OC(C)(C)C)C3)n2)cn1 (stereo not shown); < 500 nM
Cc1cc(-c2ccnc(Nc3cnn(C)c3)n2)ccc1CNC(=O)c1cc2c(s1)CCCC2; 500 to 1500 nM
Cc1cc(-c2ccnc(Nc3cnn(C)c3)n2)ccc1CNC(=O)c1cnc(C(C)(C)C)s1; < 500 nM
CCN1CCn2nc(Nc3cc(-c4ccc(CNC(=O)c5cnn(C(C)(C)C)c5)c(C)c4)ncn3)cc2C1; < 500 nM
COCCn1cc(Nc2nccc(-c3ccc4c(c3)CCCC[C@H]4NC(=O)N3CC(OC(C)(C)C)C3)n2)cn1; < 500 nM

Dear colleague, could you please provide IC50 for the compounds listed below?
1. Cc1cc(-c2ccnc(Nc3cnn(CCO)c3)n2)ccc1CNC(=O)c1cnc(C(C)(C)C)s1
2. Cc1c(Nc2nccc(-c3ccc(CNC(=O)N4CCC(C(C)(C)C)C4)c(CCO)c3)n2)cnn1C (stereo not shown)

RESULT:
< 500 nM
< 500 nM

---

Record set of IC50 for target or system BTK enzyme (Homo sapiens, UniProt Q06187).

The following compounds have reported results that may help.
Cc1cc(-c2ccnc(Nc3cnn(C)c3)n2)ccc1CNC(=O)NC12CCC(CC1)CC2 [Example I-22]; 10 to 99 nM
Cc1cc(-c2ccnc(Nc3cnn(C4CC4)c3)n2)ccc1CNC(=O)N1CCC(C(C)(C)C)C1 (stereo not shown) [Example I-308]; < 10 nM
CC(C)(C)c1ncc(C(=O)NC2CCCc3cc(-c4cc(Nc5cn[nH]c5)ncn4)ccc32)s1 (stereo not shown) [Example I-93]; 10 to 99 nM

Now, please, on to the next compound.
QUERY: Please tell me the measured IC50 for Cc1cc(-c2ccnc(Nc3cnn(C)c3)n2)ccc1CNC(=O)c1cnc(C(F)(F)F)s1 [Example I-4] ; system: BTK enzyme (Homo sapiens, UniProt Q06187).
RESULT: < 10 nM

---

Please go through the items and note down their pIC50.
# Target under test: BTK enzyme (Homo sapiens)
# Construct: purchased Upstate 14-552
# Protocol text: In vitro BTK kinase assay: BTK-POLYGAT-LS assay
# Format: biochemical
# Condition parameters: ATP 10 μM, read-out: IC50 (10uMATP)
pIC50: −log10 of the molar value.

Cc1cc(-c2ccnc(Nc3cnn(C)c3)n2)ccc1CNC(=O)c1cnc(C(C)(C)C)s1; > 8.00
Cn1cc(Nc2nccc(-c3cc(Cl)c(CNC(=O)c4cnc(C(C)(C)C)s4)cc3F)n2)cn1; > 8.00
Cc1cc(-c2ccnc(Nc3ccc(N4CCN(C)CC4)cn3)n2)ccc1CNC(=O)c1cc2c(s1)CCNC2; 6.00 to 7.00

QUERY: Please supply the value of reported pIC50 for the item CCn1cc(Nc2nccc(-c3ccc4c(c3)CCCCC4NC(=O)N3CCC(C(C)C)C3)n2)cn1 (stereo not shown)
RESULT: > 8.00
